For each of the compounds below, state its DL0.
Test system: souris
Assay: Acute toxicity, lethal dose DL0 after oral administration
Format: in vivo
Settings: mouse, maximal dose causing no mortality in 8 days
Source text: 4) Etude de la toxicité aiguë On a évalué les doses létales DLo des différents composés testés après administration par voie orale chez la souris. On appelle DLo la dose maximale ne provoquant aucune mortalité en 8 jours.
Number only, in mg/kg; omit the unit.

Q. Let me know recorded DL0 for CCCN[C@@H]1Cc2c[nH]c3cccc(c23)[C@H]1O (racemic) , thanks.
A. 60

Q. Let me know recorded DL0 for CC(C)N[C@@H]1Cc2c[nH]c3cccc(c23)[C@H]1O (racemic) , thanks.
A. 100

Q. Let me know recorded DL0 for CCN[C@@H]1Cc2c[nH]c3cccc(c23)[C@H]1O (racemic) , thanks.
A. 80

###

test system: souris; experiment: Acute toxicity, lethal dose DL0 after oral administration; assay type: in vivo; conditions: mouse, maximal dose causing no mortality in 8 days
property: DL0

Q. Let me know recorded DL0 for CN[C@@H]1CC2CNc3cccc(c32)[C@H]1O (mixture of isomers) , thanks.
A. >800 mg/kg

Q. Let me know recorded DL0 for N[C@@H]1CC2CNc3cccc(c32)[C@H]1O (mixture of isomers) , thanks.
A. >400 mg/kg

Q. Let me know recorded DL0 for CN[C@@H]1Cc2c[nH]c3cccc(c23)[C@H]1O (racemic) , thanks.
A. >400 mg/kg

Q. Let me know recorded DL0 for CCN[C@@H]1CC2CNc3cccc(c32)[C@H]1O (mixture of isomers) , thanks.
A. >400 mg/kg
